# Assay text: in vitro
Examples of compounds with documented CC50 at 72 h follow.
Express it in µM; write the number only.

As a guide, the following entries are already answered.
* CCCCCCCCOC(=O)OC1CC(C)CCC1C(C)C (centres unmarked) | 44.1
* CCCCOC(=O)OC1CC(C)CCC1C(C)C (centres unmarked) | 207
* CCCCCCCOC(=O)OC1CC(C)CCC1C(C)C (centres unmarked) | 48.4
* CCOC(=O)OC1CC(C)CCC1C(C)C (centres unmarked) | 103

Now consider the entry below.
Problem: Look up CC50 at 72 h: CC1CCC(C(C)C)C(O)C1 (centres unmarked)
Solution: 266
